target: P2Y1 receptor (Homo sapiens, UniProt P47900); assay: [3H]2MeSADP radioligand binding at the P2Y1 receptor (U2OS membranes); design: expressed in transfected cells; host or cells: U2OS cells (membrane preparation)
Sequence (P47900 whole entry): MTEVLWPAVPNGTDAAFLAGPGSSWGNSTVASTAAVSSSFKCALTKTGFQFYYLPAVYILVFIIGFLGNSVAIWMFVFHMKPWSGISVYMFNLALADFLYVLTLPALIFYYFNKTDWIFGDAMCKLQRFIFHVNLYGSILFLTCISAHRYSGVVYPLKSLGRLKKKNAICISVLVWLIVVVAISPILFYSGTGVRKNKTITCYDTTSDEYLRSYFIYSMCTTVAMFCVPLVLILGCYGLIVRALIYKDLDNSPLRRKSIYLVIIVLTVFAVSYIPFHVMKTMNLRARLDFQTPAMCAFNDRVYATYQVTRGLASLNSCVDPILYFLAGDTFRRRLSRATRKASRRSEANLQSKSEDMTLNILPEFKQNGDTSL
Measured Metric: pKi
pKi (log units): -log10 of the concentration in mol/L.

stdin: Fill blank: measured pKi of the molecule O=C(/C=C/c1ccc(O)c(O)c1/C=C/c1ccc(O)c(O)c1)O[C@H](Cc1ccc(O)c(O)c1)C(=O)O [SAA, salvianolic acid A] is ____.
stdout: 4.83

* * *

target: P2Y12 receptor (Homo sapiens); assay: [3H]2MeSADP radioligand binding at the P2Y12 receptor (U2OS membranes); set-up: expressed in transfected cells; host or cells: U2OS cells (membrane preparation); settings: full inhibition curves vs [3H]2MeSADP (0.4 nM); read-out: Ki, P2Y12 receptor binding
Sequence (Q9H244 whole entry): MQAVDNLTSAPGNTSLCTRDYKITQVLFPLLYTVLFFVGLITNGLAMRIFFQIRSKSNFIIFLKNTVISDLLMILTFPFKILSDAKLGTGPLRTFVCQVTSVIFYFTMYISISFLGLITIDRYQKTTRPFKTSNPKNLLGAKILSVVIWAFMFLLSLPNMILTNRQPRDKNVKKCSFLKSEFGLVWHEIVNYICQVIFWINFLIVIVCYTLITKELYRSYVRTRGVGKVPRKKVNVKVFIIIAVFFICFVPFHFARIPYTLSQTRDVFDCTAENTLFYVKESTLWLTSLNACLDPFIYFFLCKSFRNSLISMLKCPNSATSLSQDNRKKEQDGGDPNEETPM
Measured Metric: Ki (µM)
Lab book: enter the figure in µM, no units written.

stdin: What value of measured Ki is listed for O=C(/C=C/c1ccc(O)c2oc(-c3ccc(O)c(O)c3)cc12)O[C@H](Cc1ccc(O)c(O)c1)C(=O)O ?
stdout: 15.6

* * *

biological target: P2Y1 receptor (Homo sapiens); assay: [3H]2MeSADP radioligand binding at the P2Y1 receptor (U2OS membranes); design: expressed in transfected cells; host or cells: U2OS cells (membrane preparation); details: IC50, inhibition of [3H]2MeSADP binding to human P2Y1 receptor, absence of Tween-20; average
Measured Metric: pIC50
Convention used: pIC50 is expressed as -log10 of the molar concentration.

stdin: I have this compound here, O=C(/C=C/c1ccc(O)c(O)c1/C=C/c1ccc(O)c(O)c1)O[C@H](Cc1ccc(O)c(O)c1)C(=O)O , and I need its recorded pIC50.
stdout: 4.67

* * *

Biological target: α1B adrenergic receptor (Homo sapiens, UniProt P35368)
Sequence (P35368 1-520): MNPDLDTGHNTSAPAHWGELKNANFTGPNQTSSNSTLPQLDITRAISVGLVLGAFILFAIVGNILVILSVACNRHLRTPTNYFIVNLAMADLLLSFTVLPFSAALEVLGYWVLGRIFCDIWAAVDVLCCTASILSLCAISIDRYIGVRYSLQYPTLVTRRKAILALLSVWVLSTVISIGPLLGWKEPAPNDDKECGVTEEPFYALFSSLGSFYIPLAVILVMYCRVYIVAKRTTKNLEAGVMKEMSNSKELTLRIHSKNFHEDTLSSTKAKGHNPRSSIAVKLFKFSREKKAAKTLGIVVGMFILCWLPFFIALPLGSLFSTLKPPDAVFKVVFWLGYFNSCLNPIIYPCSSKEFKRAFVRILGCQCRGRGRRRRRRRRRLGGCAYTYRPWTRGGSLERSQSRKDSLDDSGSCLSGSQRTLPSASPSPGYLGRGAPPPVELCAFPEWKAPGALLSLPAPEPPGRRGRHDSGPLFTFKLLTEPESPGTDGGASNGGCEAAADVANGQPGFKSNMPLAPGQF
Measured Metric: Ki (µM)
All answers are understood in µM, so give the number only.

stdin: Can you share its Ki? I mean this compound: O=C(C=Cc1ccc(O)c2c1C(C(=O)OC(Cc1ccc(O)c(O)c1)C(=O)O)C(c1ccc(O)c(O)c1)O2)OC(Cc1ccc(O)c(O)c1)C(=O)O (stereo not shown)
stdout: 6.26

* * *

biological target: P2Y1 receptor (Homo sapiens, UniProt P47900); assay: [3H]2MeSADP radioligand binding at the P2Y1 receptor (U2OS membranes); design: expressed in transfected cells; host or cells: U2OS cells (membrane preparation); settings: IC50, inhibition of [3H]2MeSADP binding to human P2Y1 receptor, presence of 0.01% Tween-20; average
Measured Metric: pIC50
Interpret pIC50 as the negative base-10 log of the concentration measured in mol/L.

stdin: Report pIC50 for O=C(/C=C/c1ccc(O)c(O)c1/C=C/c1ccc(O)c(O)c1)O[C@H](Cc1ccc(O)c(O)c1)C(=O)O [SAA, salvianolic acid A] please.
stdout: 4.71
